Origin of the recorded values: patent US9857359B2

Test system: IRF4
Test: B-CLL / CD40L fibroblast co-culture Western blot, IRF4
Type: cell-based, human
Conditions: 72 hours, 10 μM lenalidomide, 1 μM pomalidomide, 0.1 μM Compound A, 0.1 μM Compound B, 3 patient samples
propertyMeasured: IRF4 protein level

- O=C1CC[C@H](N2Cc3c(OCc4ccc(CN5CCOCC5)cc4)cccc3C2=O)C(=O)N1: down regulated
- Cc1nc2cccc(N)c2c(=O)n1C1CCC(=O)NC1=O (stereo not shown): down regulated
- Nc1cccc2c1C(=O)N(C1CCC(=O)NC1=O)C2=O (stereo not shown) [pomalidomide, reference compound]: down regulated
- Nc1cccc2c1CN(C1CCC(=O)NC1=O)C2=O (stereo not shown) [lenalidomide]: down regulated
